Listed next: entries and their corresponding pIC50.
Molecular target: G1 APOL1 (Homo sapiens, UniProt O14791, I384M/S342G)
Construct: expressed in transfected cells
Sequence (O14791 28-398 S342G/I384M): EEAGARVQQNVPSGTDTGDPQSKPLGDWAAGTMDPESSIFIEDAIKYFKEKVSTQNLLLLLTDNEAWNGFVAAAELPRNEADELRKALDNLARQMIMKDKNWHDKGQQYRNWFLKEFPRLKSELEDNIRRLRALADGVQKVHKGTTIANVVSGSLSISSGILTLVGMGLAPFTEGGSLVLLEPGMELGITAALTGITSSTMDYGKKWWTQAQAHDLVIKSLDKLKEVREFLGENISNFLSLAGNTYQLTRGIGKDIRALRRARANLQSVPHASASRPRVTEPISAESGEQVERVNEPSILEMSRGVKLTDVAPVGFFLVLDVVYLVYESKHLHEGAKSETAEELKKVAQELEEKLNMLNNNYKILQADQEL
Test: Acute APOL1 Thallium Assay with Inducible Stable Clones of HEK 293 Cells
Format: cell-based
Settings: HEK 293 inducible stable clones, G1 APOL1; read-out: Thallium Assay (IC50)
pIC50: −log10 of the molar value.

Solved cases (7 shown):
>  <Molecule>
CNC(=O)CCc1c(-c2ccc(F)cc2)[nH]c2ccc(F)cc12 [Compound 73]

>  <pIC50>
< 6.00

$$$$
>  <Molecule>
O=C1CNC(=O)N1CCc1c(-c2ccc(F)cc2)[nH]c2c(F)cc(F)cc12 [Compound 258]

>  <pIC50>
< 6.00

$$$$
>  <Molecule>
CC(O)CS(=O)(=O)NCCc1c(-c2ccc(F)cc2)[nH]c2c(F)cc(F)cc12 (centres unmarked) [Compound 421]

>  <pIC50>
< 6.00

$$$$
>  <Molecule>
NC(=O)C1(NC(=O)CCc2c(-c3ccc(F)cc3)[nH]c3c(F)cc(F)cc23)CC1 [Compound 107]

>  <pIC50>
6.00 to 6.60

$$$$
>  <Molecule>
O=C(NCCc1c(-c2ccc(F)cc2)[nH]c2c(F)cc(F)cc12)c1cnccn1 [Compound 398]

>  <pIC50>
< 6.00

$$$$
>  <Molecule>
O=C(CCc1c(-c2ccc(F)cc2)[nH]c2ccc(F)cc12)NCCCO [Compound 85]

>  <pIC50>
< 6.00

$$$$
>  <Molecule>
CC1(NC(=O)CCc2c(-c3ccc(F)cc3)[nH]c3c(F)cc(F)cc23)CCOC1 (racemic) [Compound 152]

>  <pIC50>
< 6.00

$$$$

Please turn your attention to the following entry.
Input: Would you kindly share the measured pIC50 for Cc1cc(F)c2[nH]c(-c3ccc(F)cc3)c(CCC(=O)NC(C#N)CO)c2c1 (centres unmarked) [Compound 215] ?
Output: 6.00 to 6.60
